- assayNotes: MTT assay, cytotoxicity against normal breast cell line MCF-10a
- conditionLabel: human, MCF-10a normal breast cells
attributeMeasured: IC50 at 48 h (µM)
Quick note: give the figure in µM, leave out the unit.

The examples below pair each entry with its known result.
>  <molecule>
Cc1ccc(C(=O)C=Cc2ccc(Oc3ccc(Cl)cc3)cc2)cc1 [Compound 2f]

>  <attributeMeasured>
IC50 at 48 h

>  <observed>
20.6

$$$$
>  <molecule>
O=C(C=Cc1ccc(Oc2ccc(Br)cc2)cc1)c1ccc(Br)cc1 [Compound 2b]

>  <attributeMeasured>
IC50 at 48 h

>  <observed>
25.3

$$$$
>  <molecule>
CC(=O)N1N=C(c2ccc(C)cc2)CC1c1ccc(Oc2ccc(Br)cc2)cc1 (centres unmarked) [Compound 3c]

>  <attributeMeasured>
IC50 at 48 h

>  <observed>
19.5

$$$$
>  <molecule>
CC(=O)N1N=C(c2ccc(C)cc2)CC1c1ccc(Oc2ccc(Cl)cc2)cc1 (centres unmarked) [Compound 3f]

>  <attributeMeasured>
IC50 at 48 h

>  <observed>
12.2

$$$$
>  <molecule>
O=C(C=Cc1ccc(Oc2ccc(Cl)cc2)cc1)c1ccc(Cl)cc1 [Compound 2d]

>  <attributeMeasured>
IC50 at 48 h

>  <observed>
33.1

$$$$
>  <molecule>
CC(=O)N1N=C(c2ccc(Br)cc2)CC1c1ccc(Oc2ccc(Br)cc2)cc1 (centres unmarked) [Compound 3b]

>  <attributeMeasured>
IC50 at 48 h

>  <observed>
11.5

$$$$

Form: molecule = CC(=O)N1N=C(c2ccc(Br)cc2)CC1c1ccc(Oc2ccc(Cl)cc2)cc1 (centres unmarked) [Compound 3e] ; IC50 at 48 h = 10.1

Form: molecule = O=C(C=Cc1ccc(Oc2ccc(Br)cc2)cc1)c1ccc(Cl)cc1 [Compound 2a] ; IC50 at 48 h = 33.4

Form: molecule = O=C(C=Cc1ccc(Oc2ccc(Cl)cc2)cc1)c1ccc(Br)cc1 [Compound 2e] ; IC50 at 48 h = 22.1

Form: molecule = CC(=O)N1N=C(c2ccc(Cl)cc2)CC1c1ccc(Oc2ccc(Br)cc2)cc1 (centres unmarked) [Compound 3a] ; IC50 at 48 h = 55.8

Form: molecule = CC(=O)N1N=C(c2ccc(Cl)cc2)CC1c1ccc(Oc2ccc(Cl)cc2)cc1 (centres unmarked) [Compound 3d] ; IC50 at 48 h = 45.7
